Quick reference: IC50 of the listed items.
- targetUnderTest: T1, gp130-Fc fusion protein (human, UniProt P40189 23-619)
- T1 construct: extracellular domain; not shown: Fc fragment of human IgG1
- T1 sequence (looked up): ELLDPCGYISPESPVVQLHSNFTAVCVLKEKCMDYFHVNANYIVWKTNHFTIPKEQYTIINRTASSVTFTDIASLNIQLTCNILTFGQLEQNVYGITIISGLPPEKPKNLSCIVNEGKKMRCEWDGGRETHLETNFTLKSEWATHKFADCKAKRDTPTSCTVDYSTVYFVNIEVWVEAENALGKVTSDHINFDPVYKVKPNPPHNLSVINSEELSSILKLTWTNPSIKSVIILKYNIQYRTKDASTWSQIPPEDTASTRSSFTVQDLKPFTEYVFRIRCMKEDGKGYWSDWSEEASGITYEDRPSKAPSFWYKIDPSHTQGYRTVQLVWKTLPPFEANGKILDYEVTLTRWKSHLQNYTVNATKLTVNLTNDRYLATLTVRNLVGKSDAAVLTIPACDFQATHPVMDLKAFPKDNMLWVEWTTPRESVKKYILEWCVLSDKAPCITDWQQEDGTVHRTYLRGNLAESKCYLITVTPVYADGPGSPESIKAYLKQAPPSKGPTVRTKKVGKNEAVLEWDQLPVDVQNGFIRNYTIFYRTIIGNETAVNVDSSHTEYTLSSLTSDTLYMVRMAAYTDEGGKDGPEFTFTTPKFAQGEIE
- assayName: competition ELISA: OSM-GST titrated against plate-bound wt OSM for gp130-Fc; mean
# value in µg/mL; strip the unit string

Known IC50 results, listed for orientation:
OSM-GST mutant Y126A (ligand, not shown: a dimerising Fc or GST; large carriers; small tags and cut ends, Alanine mutant of m4; also called (24)Y126A; 24 Y126A) AAIGSCSKEYRVLLGQLQKQTDLMQDTSRLLDPYIRIQGLDVPKLREHCRERPGAFPSEETLRGLGRRGFLQTLNATLGCVLHRLADLEQRLPKAQDLERSGLNIEDLEKLQMARPNILGLRNNIACMAQLLDNSDTAEPTKAGRGASQPPTPTPASDAFQRKLEGCRFLHGYHRFMHSVGRVFSKWGESPNRSRR    0.382
OSM-GST mutant Q130A (ligand, not shown: a dimerising Fc or GST; large carriers; small tags and cut ends, Alanine mutant of m4; also called (25)Y130A; 25 Q130A) AAIGSCSKEYRVLLGQLQKQTDLMQDTSRLLDPYIRIQGLDVPKLREHCRERPGAFPSEETLRGLGRRGFLQTLNATLGCVLHRLADLEQRLPKAQDLERSGLNIEDLEKLQMARPNILGLRNNIYCMAALLDNSDTAEPTKAGRGASQPPTPTPASDAFQRKLEGCRFLHGYHRFMHSVGRVFSKWGESPNRSRR    0.14
OSM-GST mutant T21A (ligand, not shown: a dimerising Fc or GST; large carriers; small tags and cut ends, Alanine mutant of m4; also called (14)T21A; 14 T21A) AAIGSCSKEYRVLLGQLQKQADLMQDTSRLLDPYIRIQGLDVPKLREHCRERPGAFPSEETLRGLGRRGFLQTLNATLGCVLHRLADLEQRLPKAQDLERSGLNIEDLEKLQMARPNILGLRNNIYCMAQLLDNSDTAEPTKAGRGASQPPTPTPASDAFQRKLEGCRFLHGYHRFMHSVGRVFSKWGESPNRSRR    0.084

IC50 measured on OSM-GST mutant R122A (ligand, not shown: a dimerising Fc or GST; large carriers; small tags and cut ends, Alanine mutant of m4; also called (21)R122A; 21 R122A) AAIGSCSKEYRVLLGQLQKQTDLMQDTSRLLDPYIRIQGLDVPKLREHCRERPGAFPSEETLRGLGRRGFLQTLNATLGCVLHRLADLEQRLPKAQDLERSGLNIEDLEKLQMARPNILGLANNIYCMAQLLDNSDTAEPTKAGRGASQPPTPTPASDAFQRKLEGCRFLHGYHRFMHSVGRVFSKWGESPNRSRR = 0.176

IC50 measured on OSM-GST mutant N117A (ligand, not shown: a dimerising Fc or GST; large carriers; small tags and cut ends, Alanine mutant of m4; also called (18)N117A; 18 N117A) AAIGSCSKEYRVLLGQLQKQTDLMQDTSRLLDPYIRIQGLDVPKLREHCRERPGAFPSEETLRGLGRRGFLQTLNATLGCVLHRLADLEQRLPKAQDLERSGLNIEDLEKLQMARPAILGLRNNIYCMAQLLDNSDTAEPTKAGRGASQPPTPTPASDAFQRKLEGCRFLHGYHRFMHSVGRVFSKWGESPNRSRR = 0.785

IC50 measured on OSM-GST mutant P116A (ligand, not shown: a dimerising Fc or GST; large carriers; small tags and cut ends, Alanine mutant of m4; also called (17)P116A; 17 P116A) AAIGSCSKEYRVLLGQLQKQTDLMQDTSRLLDPYIRIQGLDVPKLREHCRERPGAFPSEETLRGLGRRGFLQTLNATLGCVLHRLADLEQRLPKAQDLERSGLNIEDLEKLQMARANILGLRNNIYCMAQLLDNSDTAEPTKAGRGASQPPTPTPASDAFQRKLEGCRFLHGYHRFMHSVGRVFSKWGESPNRSRR = 0.199

The values you see were collected from patent US6706266.
